Molecular target: ER (endogenous, MCF7 cells) (Homo sapiens (Human), UniProt P03372)
Sequence (P03372 whole entry): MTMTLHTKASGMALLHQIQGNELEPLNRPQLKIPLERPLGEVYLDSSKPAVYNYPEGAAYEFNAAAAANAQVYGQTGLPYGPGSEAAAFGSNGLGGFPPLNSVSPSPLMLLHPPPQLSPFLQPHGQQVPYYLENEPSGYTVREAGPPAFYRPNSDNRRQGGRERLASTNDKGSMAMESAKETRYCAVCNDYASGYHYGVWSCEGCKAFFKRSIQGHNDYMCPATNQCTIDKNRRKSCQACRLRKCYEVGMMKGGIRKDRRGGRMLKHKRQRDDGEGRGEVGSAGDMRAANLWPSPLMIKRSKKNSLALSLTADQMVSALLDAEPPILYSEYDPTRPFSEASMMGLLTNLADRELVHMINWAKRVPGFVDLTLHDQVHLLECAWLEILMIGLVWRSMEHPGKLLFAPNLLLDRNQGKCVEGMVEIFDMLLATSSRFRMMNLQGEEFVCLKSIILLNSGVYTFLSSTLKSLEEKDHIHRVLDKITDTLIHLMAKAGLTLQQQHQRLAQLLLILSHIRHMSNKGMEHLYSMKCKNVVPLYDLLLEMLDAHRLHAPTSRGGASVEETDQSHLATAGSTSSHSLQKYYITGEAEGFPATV
Assay: ER transcription assay (MCF7 cells), ERE-luciferase reporter
Assay type: cell-based
Conditions: inflection point of the inhibition of transcription in MCF7 cells; 0.1 nM estradiol, 24 hours; read-out: MCF7 IC50
readout label: IC50
Could you write the number and then its unit?

compound: CC/C(=C\c1ccc(Oc2c(-c3ccccc3C(C)C)sc3cc(O)ccc23)cc1)C(=O)O [Example 113]
study system: ER (endogenous, MCF7 cells) (Homo sapiens (Human), UniProt P03372)
IC50: 62 nM

Query: IC50; subject: CC/C(=C\c1ccc(Oc2c(-c3ccc(O)cc3)sc3cc(O)ccc23)cc1)C(=O)O [Example 114]
216 nM

Query: IC50; subject: CC(C)c1ccccc1-c1sc2cc(OC(=O)C(C)(C)C)ccc2c1Oc1ccc(/C=C/C(=O)O)cc1 [Example 135]
61 nM

Query: IC50; subject: O=C(O)/C=C/c1ccc(Oc2c(-c3ccc(F)cc3CN3CCCC3=O)sc3cc(O)ccc23)cc1 [Example 99]
544 nM

Query: IC50; subject: CNC(=O)/C=C/c1ccc(Oc2c(-c3ccc(O)c(F)c3)sc3cc(O)ccc23)cc1 [Example 69]
185 nM

Query: IC50; subject: O=C(O)/C=C/c1ccc(Oc2c(-c3ccccc3CN3CCC3)sc3cc(O)ccc23)cc1 [Example 97]
292 nM

Query: IC50; subject: CC(C)c1ccccc1-c1sc2cc(O)ccc2c1Oc1ccc(/C=C/C(=O)OCCN2CCOCC2)cc1 [Example 138]
5.8 nM

###

Biological target: ERα (Homo sapiens (Human), UniProt P03372)
Sequence (P03372 whole entry): as above
Assay: ERα degradation (MCF7 cells), in-cell Western
Conditions: inflection point of the degradation in response to ligand concentration, MCF7 cells
readout label: IC50

molecule: O=C(O)/C=C/c1ccc(Oc2c(-c3ccccc3)sc3cc(O)ccc23)cc1 [Example 60]
IC50: 0.026 µM

molecule: O=C(O)/C=C/c1ccc(Oc2c(-c3ccc(O)cc3)sc3c(F)c(O)c(F)cc23)cc1 [Example 38]
IC50: 0.022 µM

molecule: CC(C)c1ccccc1-c1sc2cc(O)ccc2c1Nc1ccc(/C=C/C(=O)O)cc1 [Example 118]
IC50: 0.0028 µM

Form: Entry = CC(=O)c1ccccc1-c1sc2cc(O)ccc2c1Oc1ccc(/C=C/C(=O)O)cc1 [Example 19] | System = ERα (Homo sapiens (Human), UniProt P03372) | IC50 = ____
0.007 µM

###

Molecular target: ERα (Homo sapiens (Human))
Test: ERα degradation (MCF7 cells), in-cell Western
Conditions: inflection point of the degradation in response to ligand concentration, MCF7 cells
Quick list: IC50 per entry.
Write the value in µM as a bare number.

Sample records with IC50:
molecule: Cc1cc(C)cc(-c2sc3cc(O)ccc3c2Oc2ccc(/C=C/C(=O)O)cc2)c1 [Example 23]
study system: ERα (Homo sapiens (Human))
u: µM
IC50: 0.03
--
molecule: CNC(=O)/C=C/c1ccc(Oc2c(-c3ccc(O)c(F)c3)sc3cc(O)ccc23)cc1 [Example 69]
study system: ERα (Homo sapiens (Human))
u: µM
IC50: 0.024
--
molecule: Cn1cnc(/C=C/c2ccc(Oc3c(-c4ccc(O)cc4)sc4cc(O)ccc34)cc2)c1 [Example 73]
study system: ERα (Homo sapiens (Human))
u: µM
IC50: 0.017

Query: IC50; subject: C[C@H](O)c1ccccc1-c1sc2cc(O)ccc2c1Oc1ccc(/C=C/C(=O)O)cc1 [Example 25]
0.006

Query: IC50; subject: O=c1nc(/C=C/c2ccc(Oc3c(-c4ccc(O)cc4)sc4cc(O)ccc34)cc2)cc(C(F)(F)F)[nH]1 [Example 50]
0.022

Query: IC50; subject: CCCc1nnc(/C=C/c2ccc(Oc3c(-c4ccccc4C(C)C)sc4cc(O)ccc34)cc2)o1 [Example 103]
0.0033
